Measured MIC values are reported for all entries that follow.
Tested on: Aspergillus flavus
Test: MIC, RPMI medium
Assay type: cell-based
Conditions: Aspergillus flavus, MIC banded into grades, read-out: MIC grade, A. flavus

Ask: Quick one: MIC for Cc1cc(C)nc(N2CCN(c3ccc(NC(=O)C(=O)c4c(-c5ccccc5)cc(C)n4CCOc4ccccc4)cc3)CC2)c1 [Example 134] ?
Result: > 10 µg/mL

###

Measured MIC values are reported for all entries that follow.
Test system: Aspergillus flavus
Test: MIC, RPMI medium
Format: cell-based
Conditions: Aspergillus flavus, MIC banded into grades, read-out: MIC grade, A. flavus

Solved entries:
CCOCn1c(C)cc(-c2ccccc2)c1C(=O)C(=O)Nc1ccc(N2CCN(c3cc(C)cc(C)n3)CC2)cc1 [Example 132]
> 10 µg/mL
Cc1cc(C)nc(N2CCN(c3ccc(NC(=O)C(=O)c4c(-c5ccccc5)cc(C)n4CCOC(C)C)cc3)CC2)c1 [Example 97]
1 to 10 µg/mL
COCCn1c(C)cc(-c2ccccc2)c1C(=O)C(=O)Nc1ccc(-c2ncco2)cc1 [Example 149]
> 10 µg/mL

Ask: Quick one: MIC for COCCn1c(C)cc(-c2ccccc2)c1C(=O)C(=O)Nc1ccc(N2CCN(c3cc(C)cc(C)n3)CC2)cc1F [Example 123] ?
Result: < 1 µg/mL

###

Tested on: Aspergillus flavus
Test: MIC, RPMI medium
Format: cell-based
Conditions: Aspergillus flavus, MIC banded into grades, read-out: MIC grade, A. flavus
assay.metric: MIC

Solved entries:
Cc1cccc(N2CCN(c3ccc(NC(=O)C(=O)c4c(-c5ccccc5)cc(C)n4C)cc3)CC2)n1
< 1 µg/mL
COCn1c(C)cc(-c2ccccc2)c1C(=O)C(=O)Nc1ccc(N2CCN(c3cc(C)cc(C)n3)CC2)cc1
< 1 µg/mL
COCCn1c(C)cc(-c2ccccc2)c1C(=O)C(=O)Nc1ccc(N2CCN(CC(C)(C)C)CC2)cc1F
1 to 10 µg/mL
Cc1cc(C)nc(N2CCN(c3ccc(NC(=O)C(=O)c4ccc(C)[nH]4)cc3)CC2)c1
> 10 µg/mL

Ask: Quick one: MIC for Cc1cc(C)nc(N2CCN(c3ccc(NC(=O)C(=O)c4ccc(C)n4-c4ccccc4)cc3)CC2)c1 ?
Result: > 10 µg/mL

Ask: Quick one: MIC for CCOCCn1c(C)cc(-c2ccccc2)c1C(=O)C(=O)Nc1ccc(N2CCN(c3cc(C)cc(C)n3)CC2)cc1 ?
Result: > 10 µg/mL

Ask: Quick one: MIC for COCCn1c(C)cc(-c2ccccc2)c1C(=O)C(=O)Nc1cccc2cnccc12 ?
Result: > 10 µg/mL

###

System: Aspergillus flavus
Assay: MIC, RPMI medium
Format: cell-based
Conditions: Aspergillus flavus, MIC banded into grades, read-out: MIC grade, A. flavus
assay.metric: MIC

Solved entries:
Cc1cc(-c2ccccc2)c(C(=O)C(=O)Nc2cccc3ccccc23)n1C
< 1 µg/mL
Cc1cc(C)nc(N2CCN(c3ccc(NC(=O)C(=O)c4c(-c5ccccc5)ccn4C)cc3)CC2)c1
< 1 µg/mL
Cc1cc(-c2ccccc2)c(C(=O)C(=O)Nc2ccc(-c3ncco3)cc2F)n1C
< 1 µg/mL
COCCCn1c(C)cc(-c2ccccc2)c1C(=O)C(=O)Nc1ccc(N2CCN(c3cc(C)cc(C)n3)CC2)cc1
1 to 10 µg/mL
Cc1cc(C)nc(N2CCN(c3ccc(NC(=O)C(=O)c4c(-c5ccccc5)cc(C)n4Cc4ccccc4)cc3)CC2)c1
> 10 µg/mL
Cc1cc(C)nc(N2CCN(c3ccc(NC(=O)C(=O)c4cc(-c5ccccc5)cn4C)cc3)CC2)c1
> 10 µg/mL

Consider the record given below.
Ask: Quick one: MIC for COCC=CCn1c(C)cc(-c2ccccc2)c1C(=O)C(=O)Nc1ccc(N2CCN(c3cc(C)cc(C)n3)CC2)cc1 ?
Result: > 10 µg/mL

###

System: Aspergillus terreus AT49
Assay: MIC, YAG medium
Assay type: cell-based
Conditions: Aspergillus terreus, 24 h at 35° C, MIC banded into grades, read-out: MIC grade, A. terreus 49
Method: Between 1 and 5 mgs of compound were accurately weighed out into a sterile Eppendorf tube. The compound was dissolved in DMSO to give a solution containing 5 mg/mL. Tubes were stored at −20° C. until required. On the day of testing thawed solutions were vortex mixed to ensure homogeneity. […] This produced MIC plates with a drug range 50-0.05 mg/L and organism inocula of 1−2×10^4 cfu/mL for Aspergillus spp. […] Growth was assessed by monitoring the optical density at 485 nm for each well. […]
assay.metric: MIC

Ask: Quick one: MIC for Cc1cc(C)nc(N2CCN(c3ccc(NC(=O)C(=O)c4c(-c5ccccc5)cc(C)n4C)cc3COCCCN3CCOCC3)CC2)c1 [Example 10] ?
Result: 1 to 10 µg/mL

Ask: Quick one: MIC for CSCCn1c(C)cc(-c2ccccc2)c1C(=O)C(=O)Nc1ccc(N2CCN(c3cc(C)cc(C)n3)CC2)cc1 [Example 133] ?
Result: < 1 µg/mL

Ask: Quick one: MIC for COCCn1ccc(-c2cccs2)c1C(=O)C(=O)Nc1ccc(N2CCN(c3cc(C)cc(C)n3)CC2)cc1 [Example 67] ?
Result: < 1 µg/mL

Ask: Quick one: MIC for CSCn1c(C)cc(-c2ccccc2)c1C(=O)C(=O)Nc1ccc(N2CCN(c3cc(C)cc(C)n3)CC2)cc1 [Example 137] ?
Result: < 1 µg/mL

Ask: Quick one: MIC for COCCc1cc(-c2ccccc2)c(C(=O)C(=O)Nc2ccc(N3CCN(c4cc(C)cc(C)n4)CC3)cc2)n1C [Example 129] ?
Result: < 1 µg/mL

Ask: Quick one: MIC for Cc1cc(C)nc(N2CCN(c3ccc(NC(=O)C(=O)c4cc(-c5ccccc5)cn4CCN(C)C)cc3)CC2)c1 [Example 85] ?
Result: > 10 µg/mL

Ask: Quick one: MIC for Cc1cc(-c2ccccc2)c(C(=O)C(=O)Nc2cccc3cccnc23)n1C [Example 31] ?
Result: < 1 µg/mL

Ask: Quick one: MIC for Cc1cc(C)nc(N2CCN(c3ccc(NC(=O)C(=O)c4c(-c5ccccc5)cc(C(C)C)n4C)cc3)CC2)c1 [Example 20] ?
Result: < 1 µg/mL

Ask: Quick one: MIC for COCCn1c(C)cc(-c2ccccc2)c1C(=O)C(=O)Nc1ccc(N2CCCCC2)cc1F [Example 114] ?
Result: < 1 µg/mL

Ask: Quick one: MIC for Cc1cc(C)nc(N2CCN(c3ccc(NC(=O)C(=O)c4c(-c5ccccc5)cc(C)n4CCN(C)C)cc3)CC2)c1 [Example 86] ?
Result: > 10 µg/mL

###

Test system: Aspergillus terreus AT49
Experiment: MIC, YAG medium
Assay type: cell-based
Details: Aspergillus terreus, 24 h at 35° C, MIC banded into grades, read-out: MIC grade, A. terreus 49
Description: Between 1 and 5 mgs of compound were accurately weighed out into a sterile Eppendorf tube. The compound was dissolved in DMSO to give a solution containing 5 mg/mL. Tubes were stored at −20° C. until required. On the day of testing thawed solutions were vortex mixed to ensure homogeneity. […] This produced MIC plates with a drug range 50-0.05 mg/L and organism inocula of 1−2×10^4 cfu/mL for Aspergillus spp. […] Growth was assessed by monitoring the optical density at 485 nm for each well. […]
Measured MIC values are reported for all entries that follow.

Solved entries:
COCC(C)N1CCN(c2ccc(NC(=O)C(=O)c3c(-c4ccccc4)cc(C)n3C)cc2)CC1 (centres unmarked) [Example 151]
< 1 µg/mL
Cc1cc(C)nc(N2CCN(c3ccc(NC(=O)C(=O)c4c(-c5ccccc5)cc(C)n4Cc4ccccc4)cc3)CC2)c1 [Example 48]
> 10 µg/mL
COCC=CCn1c(C)cc(-c2ccccc2)c1C(=O)C(=O)Nc1ccc(N2CCN(c3cc(C)cc(C)n3)CC2)cc1 [Example 141]
1 to 10 µg/mL
Cc1cc(-c2ccccc2)c(C(=O)C(=O)Nc2cccc3c(F)cccc23)n1C [Example 127]
< 1 µg/mL

Consider the record given below.
Ask: Quick one: MIC for Cc1cc(C)nc(N2CCN(c3ccc(NC(=O)C(=O)c4c(-c5ccccc5)cc5n4CCN(C)C5)cc3)CC2)c1 [Example 5] ?
Result: < 1 µg/mL

###

Measured MIC values are reported for all entries that follow.
Tested on: Aspergillus flavus
Test: MIC, RPMI medium
Format: cell-based
Details: Aspergillus flavus, MIC banded into grades, read-out: MIC grade, A. flavus

Solved entries:
Cc1cc(-c2ccccc2)c(C(=O)C(=O)Nc2ccc(N3CCN(C(C)C(C)C)CC3)cc2)n1C (centres unmarked) [Example 150]
< 1 µg/mL
COCCn1cc(-c2ccccc2Cl)cc1C(=O)C(=O)Nc1ccc(N2CCN(c3cc(C)cc(C)n3)CC2)cc1 [Example 58]
> 10 µg/mL
Cc1cc(-c2ccccc2)c(C(=O)C(=O)Nc2ccc(-c3ncco3)cc2)n1C [Example 147]
< 1 µg/mL
CC(=O)NCCn1c(C)cc(-c2ccccc2)c1C(=O)C(=O)Nc1ccc(N2CCN(c3cc(C)cc(C)n3)CC2)cc1 [Example 65]
> 10 µg/mL

Ask: Quick one: MIC for Cc1cc(-c2ccccc2)c(C(=O)C(=O)Nc2ccc(N3CCN(CC(C)(C)C)CC3)cc2F)n1C [Example 112] ?
Result: < 1 µg/mL

Ask: Quick one: MIC for Cc1cc(C)nc(N2CCN(c3ccc(NC(=O)C(=O)c4c(-c5ccccc5)cc(C)n4Cc4coc(C)n4)cc3)CC2)c1 [Example 146] ?
Result: > 10 µg/mL
